For each of the compounds below, state its Ki.
- Assayed system: aggregated 4R-tau in AD tissue (Homo sapiens)
- Construct: autopsy-confirmed postmortem AD, PSP, and CBD human brain tissues; tissue UCSF Neurodegenerative Disease Brain Bank; host or cells: post-mortem human AD brain homogenate
- Sequence (P10636 1-441 isoform P10636-8): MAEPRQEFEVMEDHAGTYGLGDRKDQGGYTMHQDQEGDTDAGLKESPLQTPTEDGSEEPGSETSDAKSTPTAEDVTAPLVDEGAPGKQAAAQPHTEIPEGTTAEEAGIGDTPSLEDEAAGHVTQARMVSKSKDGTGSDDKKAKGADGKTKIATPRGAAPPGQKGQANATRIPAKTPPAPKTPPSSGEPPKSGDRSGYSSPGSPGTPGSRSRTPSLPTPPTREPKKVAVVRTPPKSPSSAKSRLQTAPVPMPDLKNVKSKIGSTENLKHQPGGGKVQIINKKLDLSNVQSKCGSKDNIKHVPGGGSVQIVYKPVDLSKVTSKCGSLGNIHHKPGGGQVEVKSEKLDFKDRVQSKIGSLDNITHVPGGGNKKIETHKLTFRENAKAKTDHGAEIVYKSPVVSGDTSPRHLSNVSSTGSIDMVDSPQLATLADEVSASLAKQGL
- Sequence (P10636 1-410 isoform P10636-5): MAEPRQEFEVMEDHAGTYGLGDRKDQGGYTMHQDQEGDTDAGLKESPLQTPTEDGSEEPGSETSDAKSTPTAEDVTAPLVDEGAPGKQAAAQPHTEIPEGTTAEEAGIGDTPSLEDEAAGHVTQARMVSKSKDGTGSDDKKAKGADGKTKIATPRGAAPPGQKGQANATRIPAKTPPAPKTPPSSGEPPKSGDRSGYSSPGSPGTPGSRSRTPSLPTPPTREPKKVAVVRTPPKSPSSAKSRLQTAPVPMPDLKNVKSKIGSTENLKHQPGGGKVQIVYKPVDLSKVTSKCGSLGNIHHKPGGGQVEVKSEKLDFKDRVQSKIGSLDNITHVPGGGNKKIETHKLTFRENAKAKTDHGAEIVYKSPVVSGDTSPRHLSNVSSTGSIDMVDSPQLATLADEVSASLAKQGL
- Test description: In vitro competition (Ki) assay, AD brain tissue homogenate
- Assay type: binding
- Experimental setup: vs [^3H]1, n = 1, Ki=IC50/2, read-out: Inhibition Constant (Ki) versus [^3H]1
Give bare numbers, in nM.

// solved cases for Ki follow
# Given smiles, Number
records = [
    ("Cn1c(-c2cnc(N3CCOCC3)nc2)cc2ccc(F)cc21", 22),
    ("OC1CCN(c2ncc(-c3cc4ccccc4[nH]3)cn2)CC1", 11),
    ("Fc1ccc2cc(-c3cnc(N4CCC(F)(F)CC4)nc3)[nH]c2c1", 37),
    ("OC1CCN(c2ncc(-c3cc4cc(F)ccc4o3)cn2)CC1", 45),
]

Note: attention shifts to another entry.
Query: Read off the recorded Ki for `OC1CCN(c2ncc(-c3cc4cc(F)ccc4[nH]3)cn2)CC1`
Reply: 21
